test protocol: Human pharmacokinetic (PK) crossover study of caffeine versus d9-caffeine; plasma metabolites paraxanthine / paraxanthine-d6
Assay type: in vivo
test conditions: human, plasma, plasma metabolite, arithmetic mean; single dose 1.29 mmol caffeine (paraxanthine) or 1.29 mmol d9-caffeine (paraxanthine-d6), healthy adults
measured attribute: half-life (h)
Respond with the bare value in h.

Lookup: Name the recorded half-life of the item Cn1c(=O)[nH]c2ncn(C)c2c1=O in your answer.
Found: 5.74

###

test protocol: Human pharmacokinetic (PK) crossover study of caffeine versus d9-caffeine; plasma metabolites paraxanthine / paraxanthine-d6
Assay type: in vivo
test conditions: human, plasma, plasma metabolite, arithmetic mean; single dose 0.26 mmol caffeine (paraxanthine) or 0.26 mmol d9-caffeine (paraxanthine-d6), healthy adults
Cmax for assorted compounds
Respond with the bare value in nM.

mol_smiles=[2H]C([2H])([2H])n1c(=O)[nH]c2ncn(C([2H])([2H])[2H])c2c1=O measured_attribute=Cmax observed_measurement=2900

Lookup: Name the recorded Cmax of the item Cn1c(=O)[nH]c2ncn(C)c2c1=O in your answer.
Found: 1620
